# cutoff 100 °C applies to melting point; >= gives yes, < gives no

See these solved cases before continuing.
compound | cat
COc1ccc2c(c1)c(CC(=O)O)c(C)n2C(=O)c1ccc(Cl)cc1 [indomethacin] | yes
CCCC(c1ccccc1)c1ccccc1 [1,1-diphenylbutane] | no
COc1ccc(C(=O)c2ccccc2)cc1 [4-methoxybenzophenone] | no
COc1cc(N)c(Cl)cc1C(=O)NC1CCN(CCCOc2ccc(F)cc2)CC1OC (configuration not stated) [Cisapride] | yes
O=C(O)CCl [chloroacetic acid] | no

QUERY: Quick check, melting point >= 100 °C? CC/C=C\CC [cis-3-hexene]
RESULT: no

QUERY: Quick check, melting point >= 100 °C? CC1CO1 (configuration not stated) [propylene oxide]
RESULT: no

QUERY: Quick check, melting point >= 100 °C? O=C(Nc1ccccc1)OC1C=CC=CCC1OC(=O)Nc1ccccc1 (configuration not stated) [cyclohepta-3,5-diene-1,2-diyl bis(phenylcarbamate)]
RESULT: yes

QUERY: Quick check, melting point >= 100 °C? CCCCCCl [1-chloropentane]
RESULT: no

QUERY: Quick check, melting point >= 100 °C? NS(=O)(=O)c1cc2c(cc1C(F)(F)F)NCNS2(=O)=O [hydroflumethiazide]
RESULT: yes

QUERY: Quick check, melting point >= 100 °C? C=CC(=O)OCC [Ethyl acrylate]
RESULT: no

QUERY: Quick check, melting point >= 100 °C? ClCC(Cl)Cl [1,1,2-Trichloroethane]
RESULT: no

QUERY: Quick check, melting point >= 100 °C? C[Si]1(C)O[Si](C)(C)O[Si](C)(C)O[Si](C)(C)O1 [octamethylcyclotetrasiloxane]
RESULT: no

---

# label = Satisfied if melting point < 200 °C else Not satisfied

compound | cat
CC(C)SC(C)C [Diisopropyl sulfide] | Satisfied
COc1cc(C=O)cc(OC)c1 | Satisfied
CCCCCCCCCCCCO[C@@H]1O[C@H](CO)[C@@H](O[C@H]2O[C@H](CO)[C@@H](O)[C@H](O)[C@H]2O)[C@H](O)[C@H]1O [Dodecyl 4-O-alpha-D-glucopyranosyl-beta-D-glucopyranoside] | Satisfied
CC12CCC(CC1=O)C2(C)C (stereo not drawn) [camphor] | Satisfied

QUERY: In plain terms, does Sc1nc2ccccc2s1 come in under 200 °C for melting point?
RESULT: Satisfied

QUERY: In plain terms, does CCNc1nc(Cl)nc(NCC)n1 [2-chloro-4,6-bis(ethylamino)-1,3,5-triazine] come in under 200 °C for melting point?
RESULT: Not satisfied

QUERY: In plain terms, does OB(O)c1cccc(CBr)c1 come in under 200 °C for melting point?
RESULT: Not satisfied

QUERY: In plain terms, does O=Cc1ccc(O)c(O)c1O [2,3,4-trihydroxybenzaldehyde] come in under 200 °C for melting point?
RESULT: Satisfied

---

Task for the reader: assign each of the following compounds its reported melting point.
Answers are plain numbers, in °C.

compound | endpoint-unit | melting point
c1ccc(-c2ccnc3c2ccc2c(-c4ccccc4)ccnc23)cc1 [bathophenanthroline] | °C | 220
COc1ccc(C)cc1OC [3,4-dimethoxytoluene] | °C | 27

Now, please, on to the next compound.
QUERY: Read off the recorded melting point for COCC(=O)O [methoxyacetic acid]
RESULT: 8
